parameter_measured: solubility

- Ac-WRMWDLEIKVYTLLIKNLILESEVQQLKNLVELR-NH2 (C-terminus assumed) [Peptide C34-GCN4]: < 1 µM
